Every entry's value here was drawn from BigSolDB 2.1.

- MEASUREMENT_PARAMETERS: in 1,2-dichloroethane, 318.25 K
READOUT: solubility (mole fraction)
When you answer, write just the number.

Q: Which measured solubility (mole fraction) value corresponds to O=P1(C(Nc2ccccc2)c2ccccc2)OCC2(CO1)COP(=O)(C(Nc1ccccc1)c1ccccc1)OC2 (stereo unspecified) ?
Result: 0.000208

* * *

- MEASUREMENT_PARAMETERS: in benzene, 298.45 K
READOUT: solubility (mole fraction)
When you answer, write just the number.

Q: Which measured solubility (mole fraction) value corresponds to O=P1(C(Nc2ccccc2)c2ccccc2)OCC2(CO1)COP(=O)(C(Nc1ccccc1)c1ccccc1)OC2 (stereo unspecified) ?
Result: 8.2e-05
